# Test system: DU145-TXR cells
# measurement.description: MTT viability assay, reversal of MDR (re-sensitization to paclitaxel) in P-gp overexpressing DU145-TXR cells
# Assay type: cell-based, human
# measurement.setup: 15 µM compound + 500 nM PTX (Paclitaxel, Taxol); DU145-TXR; trial 2, sample 4
Consider the following molecules; for each one, report its % Survival.
One number for each entry, in %.

| structure.smiles.string | % Survival, % |
| --- | --- |
| COc1ccc(OC)c(NC(=O)c2nnn(-c3ccc4noc(-c5ccccc5)c4c3)c2C)c1 | 42 |
| O=C(c1cc2ccccc2[nH]1)N1CCN(S(=O)(=O)c2cccc3nonc23)CC1 | 70 |

// for each molecule in input: emit % Survival
1. Cn1cnnc1SCc1c(C(=O)O)nnn1-c1nonc1N
2. NS(=O)(=O)c1cccc(NC(=O)CSc2nnnn2C2CC2)c1
3. Cc1onc(-c2ccccc2)c1-c1nnc(Cn2cnc3c(oc4ccccc43)c2=O)o1
4. CCN1CCN(Cc2c(C(=O)N/N=C3/C(=O)N(C)c4ccccc43)nnn2-c2nonc2N)CC1

1. 111
2. 87
3. 41
4. 44
